System: Ipomoea hederaceae (IPOHE)
assay protocol: Pre-emergence biological efficacy, glasshouse, 1000 g/ha, evaluated after 13 days (100=total damage to plant; 0=no damage to plant)
Format: in vivo
study conditions: Ipomoea, 312 h, rate 1,000 g/ha, read-out: Percentage damage caused to weed species, pre-emergence, IPOHE
Entries annotated with measured pest or weed control at 1000 g/ha
Answer in %, number only, no unit symbol.

Solved cases (5 shown):
compound | pest or weed control at 1000 g/ha / %
COc1c(Cl)ccc(-c2nc(C(=O)O)c3c(C)c[nH]c3n2)c1F [Compound 1-63] | 80
CCOCCOC(=O)c1nc(-c2ccc(Cl)c(OC)c2F)cc2[nH]cc(C)c12 [Compound 22-82] | 90
CCOC(=O)c1nc(-c2ccc(Cl)c(OC)c2F)nc2[nH]cc(C)c12 [Compound 1-75] | 0
O=C(O)c1nc(-c2ccc(Cl)c(F)c2)nc2c1ccn2Cc1ccccc1[N+](=O)[O-] [Compound 8-17] | 0
COC(=O)c1nc(C2CC2)nc2c1cc(C)n2Cc1ccccc1[N+](=O)[O-] [Compound 8-6] | 0

Determine from records and report pest or weed control at 1000 g/ha for CCOCn1cc(C)c2c(C(=O)O)nc(-c3ccc(Cl)c(OC)c3F)nc21 [Compound 3-63]
20

Identify the reported pest or weed control at 1000 g/ha for the following entry. O=C(O)c1nc(-c2ccc(Cl)c(F)c2)nc2c1ccn2Cc1ccccc1 [Compound 6-17]
0

---

System: Setaria faberi (SETFA)
assay protocol: Pre-emergence biological efficacy, glasshouse, 1000 g/ha, evaluated after 13 days (100=total damage to plant; 0=no damage to plant)
Assay type: in vivo
study conditions: Setaria faberi, 312 h, rate 1,000 g/ha, read-out: Percentage damage caused to weed species, pre-emergence, SETFA
Method: Seeds of Alopecurus myosuroides (ALOMY), Setaria faberi (SETFA), Echinochloa crus-galli (ECHCG), Solanum nigrum (SOLNI), Amaranthus retroflexus (AMARE) and Ipomoea hederaceae (IPOHE) were sown in standard soil in pots. […] The test plants were then grown under controlled conditions in the glasshouse (at 24/16° C., day/night; 14 hours light; 65% humidity) and watered twice daily. […]
Listed here: items and their measured pest or weed control at 1000 g/ha.
Unit % implied. Number only.

compound | pest or weed control at 1000 g/ha [%]
COc1c(Cl)ccc(-c2cc3[nH]cc(C)c3c(C(=O)O)n2)c1F [Compound 22-63] | 0
COc1c(Cl)ccc(-c2nc(C(=O)OC(C)C)c3c(C)c[nH]c3n2)c1F [Compound 1-78] | 0
COC(=O)c1nc(-c2ccc(Cl)c(F)c2)nc2[nH]cc(C)c12 [Compound 1-20] | 0
COc1c(Cl)ccc(-c2nc(C(=O)O)c3c(C)cn(Cc4ccc(F)cc4)c3n2)c1F [Compound 9-63] | 0

Attention now turns to another entry.
Look up and report measured pest or weed control at 1000 g/ha for this entry: COC(=O)c1nc(Cl)cc2[nH]cc(C)c12 [Compound 22-124]
30

---

Test system: Setaria faberi (SETFA)
assay protocol: Pre-emergence biological efficacy, glasshouse, 1000 g/ha, evaluated after 13 days (100=total damage to plant; 0=no damage to plant)
Assay type: in vivo
study conditions: Setaria faberi, 312 h, rate 1,000 g/ha, read-out: Percentage damage caused to weed species, pre-emergence, SETFA
Parameter pest or weed control at 1000 g/ha: see the listing below.
Return type: number; implicit unit %.

These recorded examples may help you get a feel for the data.
molecule | pest or weed control at 1000 g/ha [%]
COC(=O)c1nc(-c2ccc(Cl)c(OC)c2F)nc2[nH]cc(C)c12 [Compound 1-64] | 10
O=C(O)c1nc(-c2ccc(Cl)c(F)c2)nc2c1ccn2Cc1ncccc1Cl [Compound 14-17] | 0
COC(=O)c1nc(-c2ccc(Cl)c(OC)c2F)nc2c1NCCN2Cc1ccccc1 [Compound 95-162] | 0
COC(=O)c1nc(-c2ccc(Cl)c(OC)c2F)cc2[nH]cc(C)c12 [Compound 22-64] | 20
COc1c(Cl)ccc(-c2nc(C(=O)O)c3c(C)c[nH]c3n2)c1F [Compound 1-63] | 10

State recorded pest or weed control at 1000 g/ha with Setaria faberi (SETFA), entry COC(=O)c1nc(-c2ccc(Cl)c(F)c2)nc2c1ccn2Cc1ccccc1[N+](=O)[O-] [Compound 8-18] , no comment.
0

Provide the reported pest or weed control at 1000 g/ha (system: Setaria faberi (SETFA)) for Cc1cc2c(C(=O)O)nc(-c3ccc(Cl)c(F)c3)nc2n1CC1CC1 [Compound 5-21]
10

# return pest or weed control at 1000 g/ha of COC(=O)c1nc(-c2ccc(Cl)c(OC)c2F)cc2c1c(C)cn2C(=O)OC [Compound 38-64] (system: Setaria faberi (SETFA))
0

All figures here come from patent US20120202690A1.
